# target_entity: hPXR (Homo sapiens (Human), UniProt O75469)
# Sequence (O75469 whole entry): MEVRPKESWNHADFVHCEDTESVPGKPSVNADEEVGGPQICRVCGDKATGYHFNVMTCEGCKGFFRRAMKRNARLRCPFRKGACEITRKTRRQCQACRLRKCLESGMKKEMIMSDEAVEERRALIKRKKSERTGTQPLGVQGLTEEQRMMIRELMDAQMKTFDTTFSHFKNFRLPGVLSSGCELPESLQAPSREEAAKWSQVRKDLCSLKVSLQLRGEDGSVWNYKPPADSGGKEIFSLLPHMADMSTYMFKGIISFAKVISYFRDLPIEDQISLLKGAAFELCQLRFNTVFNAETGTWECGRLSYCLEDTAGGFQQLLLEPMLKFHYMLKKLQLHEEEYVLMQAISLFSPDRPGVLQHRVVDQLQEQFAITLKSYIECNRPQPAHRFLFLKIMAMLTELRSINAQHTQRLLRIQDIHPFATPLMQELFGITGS
# assay: cell-based hPXR inverse agonistic assay
# measurement_context: read-out: Inverse agonist (% inhibition at 10 μM)
measurement_kind: inhibition at 10 µM (%)

- molecule_smiles: "COc1ccc(OC)c(-n2nnc(C(=O)Nc3cc(C(C)(C)C)ccc3OCC(C)(C)C)c2C)c1"
  result_units: "%"
  inhibition at 10 µM: 100
- molecule_smiles: "COc1ccc(OC)c(-n2nnc(C(=O)Nc3cc(OCCCCCCCCI)cc(C(C)(C)C)c3)c2C)c1"
  result_units: "%"
  inhibition at 10 µM: 92
- molecule_smiles: "CCC[C@H](CC)Oc1ccc(C(C)(C)C)cc1NC(=O)c1nnn(-c2cc(Cl)c(Cl)cc2OC)c1C"
  result_units: "%"
  inhibition at 10 µM: 97
- molecule_smiles: "COc1ccc(OC)c(-n2nnc(C(=O)Nc3cc(OCC(=O)OC(C)(C)C)cc(C(C)(C)C)c3)c2C)c1"
  result_units: "%"
  inhibition at 10 µM: 126
- molecule_smiles: "CCCOc1ccc(C(C)(C)C)cc1NC(=O)c1nnn(-c2cc(OC)ccc2OC)c1C"
  result_units: "%"
  inhibition at 10 µM: 114
- molecule_smiles: "COc1cc(NC(=O)c2nnn(-c3cc(C)ccc3OC)c2C)cc(C(C)(C)C)c1"
  result_units: "%"
  inhibition at 10 µM: 115
- molecule_smiles: "CCC[C@H](CC)Oc1ccccc1NC(=O)c1nnn(-c2cc(OC)ccc2OC)c1C"
  result_units: "%"
  inhibition at 10 µM: 106
- molecule_smiles: "CCC[C@H](CC)Oc1ccc(C(=O)OC)cc1NC(=O)c1nnn(-c2cc(OC)ccc2OC)c1C"
  result_units: "%"
  inhibition at 10 µM: 142

A: CCCCOc1cc(NC(=O)c2nnn(-c3cc(Cl)ccc3OC)c2C)cc(C(C)(C)C)c1
B: C#CCCCOc1cc(NC(=O)c2nnn(-c3cc(OC)ccc3OC)c2C)cc(C(C)(C)C)c1
C: COc1ccc(OC)c(-n2nnc(C(=O)Nc3cc(C(C)(C)C)ccc3OCCCCI)c2C)c1
Task field, ranking: reported inhibition at 10 µM, descending order. Answer format: the labels, in the requested order.
B, A, C
(B: 116%, A: 65%, C: 24%)

I: COc1ccc(C)cc1-n1nnc(C(=O)Nc2cc(O)cc(C(C)(C)C)c2)c1C
II: COc1ccc(OC)c(-n2nnc(C(=O)Nc3cc(OCCCC(=O)O)cc(C(C)(C)C)c3)c2C)c1
inhibition at 10 µM comparison. Which is larger, I or II ? // caller expects the label of the chosen entry
II
(II: 118%, I: 75%)
